Hello, the source for this data is patent US20040106802A1, in case you need it.

# key: entry, value: melting point

Data request: Which melting point value belongs to Cl.N#CC1CCCN1C(=O)N(N)C1CCCCC1 (stereo not shown) ?
Data returned: 160 to 162 °C (dec.)

Data request: Which melting point value belongs to Cl.N#CC1CSCN1C(=O)N(N)C1CCCCC1 (stereo not shown) ?
Data returned: 166 to 168 °C (dec.)

Data request: Which melting point value belongs to CC(C)N(N)C(=O)N1CSCC1C#N.Cl (stereo not shown) ?
Data returned: 148 to 150 °C (dec.)

Data request: Which melting point value belongs to N#CC1CCCN1C(=O)C1CNCCN1.O=C(O)C(F)(F)F.O=C(O)C(F)(F)F (stereo not shown) ?
Data returned: 126 to 128 °C

###

- Experiment Notes: In-vitro free radical scavenging activity using DPPH free radical
- Condition Summary: Concentration 100 μM; 30° C., 30 minutes, 515 nm
Metric Name: % Activity (antioxidant, DPPH) (%)
Reply numerically in %, unit not repeated.

Data request: Which % Activity (antioxidant, DPPH) value belongs to N#CC1CSCN1C(=O)CN(N)C1CCCCC1.O=C(O)C(F)(F)F (stereo not shown) [Compound No. 21] ?
Data returned: 95.71

Data request: Which % Activity (antioxidant, DPPH) value belongs to N#CC1CSCN1C(=O)CN(N)C1CCN(CC(=O)Nc2ncccn2)CC1 (stereo not shown) [Compound No. 106] ?
Data returned: 72.86

###

- Tested System: Porcine DPP-IV (Sus scrofa)
- Construct: purchased Sigma-Aldrich Germany
- Sequence (P22411 whole entry): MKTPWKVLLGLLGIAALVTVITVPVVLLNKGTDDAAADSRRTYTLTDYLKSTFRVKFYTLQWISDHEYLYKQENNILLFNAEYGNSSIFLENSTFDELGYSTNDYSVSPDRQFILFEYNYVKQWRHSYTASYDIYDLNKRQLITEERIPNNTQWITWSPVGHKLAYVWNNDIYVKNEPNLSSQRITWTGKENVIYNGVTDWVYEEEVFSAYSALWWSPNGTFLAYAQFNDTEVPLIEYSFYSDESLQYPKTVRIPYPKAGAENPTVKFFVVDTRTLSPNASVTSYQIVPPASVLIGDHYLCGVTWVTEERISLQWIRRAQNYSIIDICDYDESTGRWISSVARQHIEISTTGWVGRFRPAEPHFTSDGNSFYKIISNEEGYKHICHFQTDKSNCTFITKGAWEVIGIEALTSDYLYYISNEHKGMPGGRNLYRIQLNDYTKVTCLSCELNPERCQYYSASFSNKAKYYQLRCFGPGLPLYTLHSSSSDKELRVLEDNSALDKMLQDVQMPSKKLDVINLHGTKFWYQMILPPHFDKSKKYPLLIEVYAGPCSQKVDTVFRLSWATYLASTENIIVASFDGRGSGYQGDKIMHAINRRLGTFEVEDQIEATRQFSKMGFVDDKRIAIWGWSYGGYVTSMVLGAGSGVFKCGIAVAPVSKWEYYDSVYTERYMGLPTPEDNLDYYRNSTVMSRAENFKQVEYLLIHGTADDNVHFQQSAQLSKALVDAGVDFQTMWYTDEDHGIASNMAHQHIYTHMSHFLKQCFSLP
- Experiment Notes: Assay of DPP-IV enzyme inhibitory activity (spectrophotometric, Gly-Pro-pNA cleavage)
- Format: biochemical
- Condition Summary: Porcine DPP-IV, Gly-Pro-pNA substrate, 30° C.; mean ± SD of three experiments except compound Nos. 133 & 139; read-out: IC50 (μM) Mean ± SD, inhibitory activity on DPP-IV enzyme activity
Metric Name: log10 of IC50 (log10 of the value in µM)
Note: values are log10 of IC50 expressed in µM.

Worked cases, log10 of IC50 given:
| Compound | log10 of IC50 |
| --- | --- |
| CS(=O)(=O)N1CCC(N(N)CC(=O)N2CSCC2C#N)CC1.O=C(O)C(F)(F)F (stereo not drawn) | 0.16 |
| CCN(N)CC(=O)N1CCCC1C#N (stereo not drawn) | 1.97 |
| CCNN(CC(=O)N1CSCC1C#N)C1CCN(S(C)(=O)=O)CC1.O=C(O)C(F)(F)F (stereo not drawn) | 0.57 |
| N#CC1CSCN1C(=O)CN(N)C1CCN(Cc2ccccc2)CC1 (stereo not drawn) | 0.21 |
| CC1CCC(NNCC(=O)N2CCCC2C#N)CC1 (stereo not drawn) [Compound No. 37] | 1.45 |
| CC1CCC(N(CC(=O)N2CSCC2C#N)NC(C)C)CC1 (stereo not drawn) | 0.46 |
| CC(C)CN(N)CC(=O)N1CCCC1C#N (stereo not drawn) | 1.84 |
| N#CC1CSCN1C(=O)CN(N)C1CCN(CC(=O)N2CCOCC2)CC1 (stereo not drawn) | -0.28 |

Okay, next one:
Data request: Which log10 of IC50 value belongs to N#CC1CSCN1C(=O)CN(N)C1CCN(CC(=O)NCc2ccccc2F)CC1 (stereo not drawn) ?
Data returned: -0.29

###

# key: entry, value: % Activity (antioxidant, DPPH)
- Experiment Notes: In-vitro free radical scavenging activity using DPPH free radical
- Condition Summary: Concentration 100 μM; 30° C., 30 minutes, 515 nm
Counter-ions that a name gives are not always drawn.

| Compound | % Activity (antioxidant, DPPH) |
| --- | --- |
| N#CC1CSCN1C(=O)CN(N)C1CCN(CC(=O)Nc2ccc(Cl)cc2)CC1 (stereo not shown) | 49.63% |
| CC(C)NN(CC(=O)N1CSCC1C#N)C1CCN(S(C)(=O)=O)CC1.O=C(O)C(F)(F)F (stereo not shown) | 55.94% |
| N#CC1CSCN1C(=O)CN(N)C1CCCC1.O=C(O)C(F)(F)F (stereo not shown) | 94.55% |
| N#Cc1ccc(NC(=O)CN2CCC(N(N)CC(=O)N3CSCC3C#N)CC2)cc1 (stereo not shown) | 53.33% |
| N#CC1CSCN1C(=O)CN(N)C1CCC(NCc2ccc(F)cc2)CC1 (stereo not shown) | 64.24% |
| N#CC1CSCN1C(=O)CN(N)C1CCN(C(=O)N2CCOCC2)CC1.O=C(O)C(F)(F)F (stereo not shown) | 67.23% |
| CCNN(CC(=O)N1CSCC1C#N)C1CCC(NS(C)(=O)=O)CC1 (stereo not shown) | 91.67% |
| CS(=O)(=O)NC1CCC(N(N)CC(=O)N2CSCC2C#N)CC1 (stereo not shown) [Compound No. 114, hydrochloride] | 92.76% |

Data request: Which % Activity (antioxidant, DPPH) value belongs to COc1ccc(S(=O)(=O)NC2CCC(N(N)CC(=O)N3CSCC3C#N)CC2)cc1.O=C(O)C(F)(F)F (stereo not shown) ?
Data returned: 78.77%

Data request: Which % Activity (antioxidant, DPPH) value belongs to N#CC1CSCN1C(=O)CN(N)C1CCN(CC(=O)Nc2ncc(Br)s2)CC1 (stereo not shown) ?
Data returned: 53.44%

Data request: Which % Activity (antioxidant, DPPH) value belongs to N#CC1CSCN1C(=O)CN(N)C1CCN(CC(=O)Nc2ccc3c(c2)OCCO3)CC1 (stereo not shown) ?
Data returned: 50.14%

Data request: Which % Activity (antioxidant, DPPH) value belongs to N#CC1CSCN1C(=O)CN(N)C1CCN(CC(=O)NC23CC4CC(CC(C4)C2)C3)CC1 (stereo not shown) ?
Data returned: 54.81%

Data request: Which % Activity (antioxidant, DPPH) value belongs to COc1ccc(S(=O)(=O)N2CCC(N(N)CC(=O)N3CSCC3C#N)CC2)cc1.O=C(O)C(F)(F)F (stereo not shown) ?
Data returned: 85.69%

Data request: Which % Activity (antioxidant, DPPH) value belongs to CCNN(CC(=O)N1CSCC1C#N)C1CCN(S(C)(=O)=O)CC1.O=C(O)C(F)(F)F (stereo not shown) ?
Data returned: 69.34%

Data request: Which % Activity (antioxidant, DPPH) value belongs to N#CC1CSCN1C(=O)CN(N)C1CCN(CC(=O)NC2CC2)CC1 (stereo not shown) ?
Data returned: 52.72%

Data request: Which % Activity (antioxidant, DPPH) value belongs to N#CC1CSCN1C(=O)CN(N)C1CCN(CC(=O)Nc2ccc(S(N)(=O)=O)cc2)CC1 (stereo not shown) ?
Data returned: 57.73%
